Exercise: for every item that follows, state its recorded inhibition at 50 µM.
Target: EBP-Ig (N-terminal 225 amino acids of the human EPO receptor joined to an Ig heavy chain) (Homo sapiens)
Construct: Ig heavy chain (fusion partner); made in house; host or cells: NSO cells (secreted into conditioned media)
Sequence (P19235 25-250 limits assumed): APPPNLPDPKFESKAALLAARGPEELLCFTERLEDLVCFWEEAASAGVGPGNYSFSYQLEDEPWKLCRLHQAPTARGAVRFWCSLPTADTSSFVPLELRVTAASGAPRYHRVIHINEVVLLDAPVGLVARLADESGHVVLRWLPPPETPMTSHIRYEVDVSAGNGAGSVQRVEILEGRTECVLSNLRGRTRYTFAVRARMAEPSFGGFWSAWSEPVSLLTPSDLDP
Assay: Inhibition of [125I]EPO binding to immobilized EBP-Ig (EPO binding protein-Ig), scintillation Flash plate competition assay
Settings: read-out: EPO/EBP-Ig % inh @ 50 μM; 50 μM compound; Table 10
Numbers only, in %.

NCCCCC(C(=O)NCc1ccccc1)N(CC=Cc1ccccc1)CC=Cc1ccccc1 (centres unmarked) ... 49
COc1cccc(CCNC(=O)C(CCCCNC(=O)CCC(=O)O)N(CC=Cc2ccccc2)CC=Cc2ccccc2)c1 (centres unmarked) ... 55
COc1ccc(CCNC(=O)C(CCCCN)N(CC=Cc2ccccc2)CC=Cc2ccccc2)cc1 (centres unmarked) ... 62
NCCCCC(C(=O)NCCc1ccccc1)N(CC=Cc1ccccc1)CC=Cc1ccccc1 (centres unmarked) ... 48

# context switch: different compound, same inhibition at 50 µM
What value of measured inhibition at 50 µM is listed for COc1ccccc1CCNC(=O)C(CCCCN)N(CC=Cc1ccccc1)CC=Cc1ccccc1 (centres unmarked) ?
51

Values were extracted from patent US7153869B2.
